pIC50: −log10 of the molar value. Counter-ions that a name gives are not always drawn.
Each entry below carries its measured pIC50, system: BTK (Homo sapiens (Human)).
Sequence (Q06187 whole entry): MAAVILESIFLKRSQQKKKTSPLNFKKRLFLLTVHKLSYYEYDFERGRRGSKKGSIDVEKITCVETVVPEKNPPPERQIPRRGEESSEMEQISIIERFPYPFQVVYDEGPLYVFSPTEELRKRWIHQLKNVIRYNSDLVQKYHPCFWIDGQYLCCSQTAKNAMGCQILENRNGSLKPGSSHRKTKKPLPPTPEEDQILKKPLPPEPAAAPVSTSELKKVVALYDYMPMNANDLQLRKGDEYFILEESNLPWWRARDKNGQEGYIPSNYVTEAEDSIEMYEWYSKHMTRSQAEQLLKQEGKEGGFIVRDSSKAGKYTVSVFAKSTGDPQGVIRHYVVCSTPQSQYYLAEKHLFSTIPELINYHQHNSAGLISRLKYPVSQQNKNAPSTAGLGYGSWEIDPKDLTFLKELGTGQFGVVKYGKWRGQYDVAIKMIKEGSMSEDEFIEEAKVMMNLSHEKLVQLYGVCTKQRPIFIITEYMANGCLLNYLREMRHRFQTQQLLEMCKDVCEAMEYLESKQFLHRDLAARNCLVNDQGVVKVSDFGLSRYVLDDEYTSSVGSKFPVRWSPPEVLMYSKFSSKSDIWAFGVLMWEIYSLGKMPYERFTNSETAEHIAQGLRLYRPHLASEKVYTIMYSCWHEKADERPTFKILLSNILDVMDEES

# return pIC50 of CC(C)(C)n1ccc(C(=O)NCc2ccc(-c3ncnn4cc(N5CCOCC5)cc34)c(F)c2Cl)n1 (system: BTK (Homo sapiens (Human))) 8.00 to 9.00

# return pIC50 of Cc1cc(-c2ncnn3cc(N4CC[C@@H](F)C4)cc23)ccc1CNC(=O)c1noc(C(C)(C)C)n1 (single isomer, unassigned) (system: BTK (Homo sapiens (Human))) ≥ 9.00

# return pIC50 of Cc1cc(-c2ncnn3cc(N4CCn5ccnc5C4)cc23)ccc1CNC(=O)c1nc(C(C)(C)C)no1 (system: BTK (Homo sapiens (Human))) ≥ 9.00

# return pIC50 of Cc1cc(-c2ncnn3cc(-c4cn(C)nn4)cc23)ccc1CNC(=O)c1noc(C(C)(C)C)n1 (system: BTK (Homo sapiens (Human))) ≥ 9.00

# return pIC50 of Cc1cc(-c2ncnn3ccc(F)c23)ccc1CNC(=O)c1noc(C(C)(C)C)n1 [Example 19, trifluoroacetate] (system: BTK (Homo sapiens (Human))) 8.00 to 9.00

# return pIC50 of Cc1c(CNC(=O)c2noc(C(C)(C)C)n2)ccc(-c2ncnn3cc(-c4cnn(C)c4)cc23)c1F (system: BTK (Homo sapiens (Human))) ≥ 9.00

# return pIC50 of Cc1cc(-c2ncnn3cc(N4CC(CO)(CO)C4)cc23)ccc1CNC(=O)c1noc(C(C)(C)C)n1 (system: BTK (Homo sapiens (Human))) ≥ 9.00

# return pIC50 of Cc1cc(-c2ncnn3cc(N4CCOCC4C)cc23)ccc1CNC(=O)c1noc(C(C)(C)C)n1 (stereo not drawn) (system: BTK (Homo sapiens (Human))) 8.00 to 9.00

# return pIC50 of Cc1cc(-c2ncnn3cc(N4CCO[C@@H](C)C4)cc23)ccc1CNC(=O)c1coc(C(C)(C)C)n1 (single isomer, unassigned) (system: BTK (Homo sapiens (Human))) ≥ 9.00

# return pIC50 of Cc1cc(-c2ncnn3cc(-c4cnco4)cc23)ccc1CNC(=O)c1noc(C(C)(C)C)n1 (system: BTK (Homo sapiens (Human))) ≥ 9.00

# return pIC50 of Cc1c(CNC(=O)c2cn(C(C)(C)C)nn2)ccc(-c2ncnn3cc(N4CCOCC4)cc23)c1F (system: BTK (Homo sapiens (Human))) ≥ 9.00

# return pIC50 of Cc1c(CNC(=O)c2noc(C(C)(C)C)n2)ccc(-c2ccnc3cc(N4CCOCC4)nn23)c1F (system: BTK (Homo sapiens (Human))) 8.00 to 9.00

# return pIC50 of Cc1cc(-c2ncnn3cc(N4CC5CC(C4)N5C)cc23)ccc1CNC(=O)c1noc(C(C)(C)C)n1 (system: BTK (Homo sapiens (Human))) 8.00 to 9.00

# return pIC50 of CC(C)(C)c1coc(C(=O)NCc2ccc(-c3ncnn4cc(N5CCOCC5)cc34)cc2C(F)F)n1 (system: BTK (Homo sapiens (Human))) 8.00 to 9.00

# return pIC50 of Cc1cc(-c2ncnn3cc(C4=CCOCC4)cc23)ccc1CNC(=O)c1noc(C(C)(C)C)n1 (system: BTK (Homo sapiens (Human))) ≥ 9.00

###

system.tested: BTK (Homo sapiens (Human))
Where a name gives a salt, the structure may show the parent alone.
reported.endpoint: IC50

Fill in reported IC50 for this entry: Cc1cc(-c2ncnn3cc(N4CCOCC4)cc23)ccc1CNC(=O)c1nnn(C(C)(C)C)n1 ≤ 1 nM

Fill in reported IC50 for this entry: Cc1cc(-c2ncnn3cc(-c4cnn(C5CC5)c4)cc23)ccc1CNC(=O)c1noc(C(C)(C)C)n1 ≤ 1 nM

Fill in reported IC50 for this entry: Cc1cc(-c2ncnn3cc(C4=CCOCC4)cc23)ccc1CNC(=O)c1ccn(C(C)(C)C)n1 (single isomer, unassigned) ≤ 1 nM

Fill in reported IC50 for this entry: Cc1cc(-c2ncnn3cc(-c4cnn(C)c4C)cc23)ccc1CNC(=O)c1cnc(C(C)(C)C)o1 1 to 10 nM

Fill in reported IC50 for this entry: Cn1cc(-c2cc3c(-c4ccc(CNC(=O)c5noc(C(C)(C)C)n5)c(C(F)F)c4)ncnn3c2)cn1 ≤ 1 nM

Fill in reported IC50 for this entry: CC(C)(C)c1nc(C(=O)N[C@@H]2CCCCc3c2ccc(-c2ncnn4cccc24)c3F)no1 [Example 56, hydrochloride] ≤ 1 nM

Fill in reported IC50 for this entry: Cc1cc(-c2ncnn3cccc23)ccc1CNC(=O)c1cnn(C(C)(C)C)c1 1 to 10 nM

Fill in reported IC50 for this entry: CC(C)(C)c1nc(C(=O)NCc2ccc(-c3ncnn4cc(N5CCOCC5)cc34)c(F)c2CC(F)F)no1 1 to 10 nM

Fill in reported IC50 for this entry: Cc1cc(-c2ncnn3cc(C4=CCOCC4)cc23)ccc1CNC(=O)c1nnn(C(C)(C)C)n1 ≤ 1 nM

Fill in reported IC50 for this entry: Cc1cc(-c2ncnn3cc(-c4cn(C)nc4C)cc23)ccc1CNC(=O)c1noc(C(C)(C)C)n1 ≤ 1 nM

Fill in reported IC50 for this entry: Cc1cc(-c2ncnn3cc(N4C[C@@H](F)[C@@H](F)C4)cc23)ccc1CNC(=O)c1noc(C(C)(C)C)n1 ≤ 1 nM

Fill in reported IC50 for this entry: CC(C)(C)c1nc(C(=O)NCc2ccc(-c3ncnn4cc(N5CCOCC5)cc34)cc2Cl)no1 [Example 15, trifluoroacetate] ≤ 1 nM

Fill in reported IC50 for this entry: Cc1cc(-c2ncnn3cccc23)ccc1CNC(=O)c1nc(C(C)(C)C)no1 1 to 10 nM

Fill in reported IC50 for this entry: Cc1cc(-c2ncnn3cc(N4CCO[C@H](C)C4)cc23)ccc1CNC(=O)c1nc(C(C)(C)C)no1 (single isomer, unassigned) ≤ 1 nM

Fill in reported IC50 for this entry: Cc1cc(-c2ncnn3cc(N4CCN(C)C(C)C4)cc23)ccc1CNC(=O)c1nnn(C(C)(C)C)n1 (stereo not shown) ≤ 1 nM

Fill in reported IC50 for this entry: COCCOc1cc2c(-c3ccc(CNC(=O)c4noc(C(C)(C)C)n4)c(C)c3)ncnn2c1 ≤ 1 nM

Fill in reported IC50 for this entry: COc1c(CNC(=O)c2noc(C(C)(C)C)n2)ccc(-c2ncnn3cc(N4CCOCC4)cc23)c1F ≤ 1 nM

Fill in reported IC50 for this entry: Cc1cc(-c2ncnn3cc(-c4ccn(C)n4)cc23)ccc1CNC(=O)c1noc(C(C)(C)C)n1 [Example 9, trifluoroacetate] ≤ 1 nM

Fill in reported IC50 for this entry: Cc1cc(-c2ncnn3cc(N4CCOCC4)cc23)ccc1CNC(=O)c1coc(C(C)(C)C)n1 1 to 10 nM

Cited source: patent US12391697B2
